- Test system: CCRF-CEM
- measurement.notes: Cytotoxicity against drug-sensitive CCRF-CEM cells after 72 hrs
- Format: cell-based
- settings: Homo sapiens
measured.metric: IC50 (nM)
Field: numeric (nM). Do not append units.

| chemical.smiles | IC50 (nM) |
| --- | --- |
| CC[C@]1(O)C[C@@H]2CN(CCc3c([nH]c4ccccc34)[C@@](C(=O)OC)(c3cc4c(cc3OC)N(C)[C@H]3[C@@](O)(C(=O)OC)[C@H](OC(C)=O)[C@]5(CC)C=CCN6CC[C@]43[C@@H]65)C2)C1 | 4 |
| CCCCCCC[C@@H]1CC(=O)N[C@@H](C(C)C)C(=O)N[C@@H]([C@@H](O)C(C)C)C(=O)N[C@@H](C)C(=O)N[C@H]([C@@H](O)C(C)C)C(=O)N[C@@H](CCC(N)=O)C(=O)N(C)[C@@H]([C@@H](C)CC)C(=O)N[C@H]([C@@H](O)C(N)=O)C(=O)N[C@@H]([C@@H](C)O)C(=O)N2CCC[C@H]2C(=O)N[C@H](CC(C)C)C(=O)N[C@@H]([C@@H](C)O)C(=O)N1 | 1110 |

Request: Find the recorded IC50 belonging to COc1cccc2c1C(=O)c1c(O)c3c(c(O)c1C2=O)C[C@@](O)(C(=O)CO)C[C@@H]3O[C@H]1C[C@H](N)[C@H](O)[C@H](C)O1 and report it.
Response: 60
